Tested on: MS2 coat protein
Assay: apparent KD of MS2 coat protein; higher = weaker reporter binding
Conditions: Eterna round: R107; input ligand: none
propertyMeasured: apparent KD of MS2 coat protein (nM)

| constructSequence | propertyMeasured | reading |
| --- | --- | --- |
| GACAUGAGGAUCGAUACCAGCGACAUGAGGAUCACAUGAGGAUCACCCAUGUGUAGUAUACGCCCUUGGCAGCGAACAUGAGGAU [Same State Theophylline B 3] | apparent KD of MS2 coat protein | 51.4 |
| UUUGAUUAGAGAAGGAGCGUGAUAUUUAUAUAGUGUGUAUGUACAUGAGGAUCACCCAUGUCACAGGUAGGUCGCUCUGAUAAGG [JR_Nu_ExcArginiB_Sub030] | apparent KD of MS2 coat protein | 13.2 |
| CGGUAGGUAGGUCGAUAUCUACCCGUAGAAGGAGCGUAAGAAAAUACAGGUAGGUCGCUACGGAACAUGAGCAUCAGCCAUGUCC [SSArg A #12-Alt Ms2] | apparent KD of MS2 coat protein | 11 |
| AAUAAUCUAGGUGAUACCAGCUCAACAUGAGGAUCACCCAUGUGCUCAUGAAGAGCUGAGAGCCCUUGGCAGCACCUAGAUAAUA [(Theo1)-(Ms2)-(M)'-(T)'-(Theo2)_Design2] | apparent KD of MS2 coat protein | 739 |
| AUAAAUAAUAAAUAUAAUAAAGUGGGUGAACGAGGACCGGUACGGCCGCCACUCGGACAUGAGGAUCACCCAUGUCCAUGUGAAA [AstrosExtTry#3] | apparent KD of MS2 coat protein | 17.3 |
| AUAUAUAUAUAGAAAUAUAUAUAUAUGUAACGAGGACCGGUACGGCCGCCACUCGUGCCGGUGAUAACAUGAGGAUCACCCAUGU [Ex_TrypA - Every engine approves!] | apparent KD of MS2 coat protein | 16 |

----------
System: MS2 coat protein
Experiment: apparent KD of MS2 coat protein; higher = weaker reporter binding
Conditions: Eterna round: R107; input ligand: arginine 13.2 mM

| constructSequence | apparent KD of MS2 coat protein, nM |
| --- | --- |
| AGACAUGUAAGAUAAAUGACUUAUACAGAUACCAGACUGUCUAAUGUCCCUUGGCAGCUGCAUAACAUGAGGAUCACCCAUGUAA [JR_ExcTheophyA_Sub010] | 22.3 |
| AAAAUAUAGACGGCCGCCACUAUAAUCAUGAGGAACAUGAGGAUCACCCAUGUAUGAGGAUCACCUAGGACCGGGUCAUAUAAAA [#24 Exclusion Tryptophan B] | 14.2 |
| UUAAUCAUUGAUGAAAACAUUAAUGCAGAAGGAGCGUGAUAAAACACAGGUAGGUCGCUGAAGGGAACAUGAGGAUCACCCAUGU [AstrosSSArgA#16] | 27.3 |
| ACCUGUACGAAAAGUGCAGGACACGGAUAACGAGGACCGGUACGGCCGCCACUCGGAAUAACCUGAGGAUCACCCUGGUACCGUG [TrypAS 8 #AlternativeMS2 #Zipper #StaticStem] | 25.8 |
| UUUUAAGGGAUCGGAGCUGGUAGCAGAGAUACCAGAGUAGUAAUGCUCCCUUGGCAGCUCAGUACAUGAGGAUCACCCAUGUUUU [Exclusion Theophylline A GF26] | 16.3 |
| GGGCGCUAUCCCGCGAGGGAUAGCGUUCGACGAGGACCGGUACGGCCGCCACUCGAACGAGUGGGUACAUGAGGAUCACCCAUGU [Gaa] | 26.3 |
| AGUGGGUGUUAUGAUACCAGCGUAAUACACAACAUGAGGAUCACCCAUGUGGAGCCUCGCCGCCCUUGGCAGCAUUGGGCCCGCA [theeternabot_sameState_MS2_Theo_B_4] | 115 |
| GUUUUAUCAAAAGAUGAAACAGUGGGUGAACGAGGACCGGUACGGCCGCCACUCGGACAUGAGGAUCACCCAUGUCCAUGUGAAA [AstrosExyTryA#13] | 15.4 |
| GUACAUGAGGAUCACCCAUGUAUAGUUGAAGGAGCGACCGGUGGGUCAGGUAGGUCGCAGCGCAUGGCGUCAACCCGUGUAUGCC [#1 Exclusion - Arginine A Attempt #27 (Inspired by Pi)] | 13.8 |
| GCACAACAUGAGGAUCACCCAUGUCGAGAUACCAGAACAUAUAUAUUCCCUUGGCAGCUCACACCUUUAAUGUAAAAUUCUUUGG [theeternabot_sameState_MS2_Theo_A_47] | 12 |
| UAUCCACAUGAGGAUCACCCAUGUUAGGAAGGAGCGGUGAAUGAACCAGGUAGGUCGCCUAGCUGAGGACCAUCAAUGGAUUCGU [Exclusion - Arginine A (Freestyle 14)] | 18.1 |

All figures here come from the supplement of paper PMC9170038.
